These measurements were taken from patent US20260176675.

molecular target: Eosinophil peroxidase (EPX) (Homo sapiens) (UniProt P11678+P11678); assay: cleavage_in_vitro; details: single riboadenosine cleavage site in FS flanked by dabcyl-dT (5') and fluorescein-dT (3') [13 dabcyl-dT; 14 riboadenosine (R); 15 fluorescein-dT]; apparent Kd = EPX concentration giving 50% of maximum cleavage; 50 mM HEPES pH 7.5, 150 mM NaCl, 15 mM MgCl2, 0.01% Tween20, RT, 30 min
Sequence (P11678 140-250, chain 1 of 2): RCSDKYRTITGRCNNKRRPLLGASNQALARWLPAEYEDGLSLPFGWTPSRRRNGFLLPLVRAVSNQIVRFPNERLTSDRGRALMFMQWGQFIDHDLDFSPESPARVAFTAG
Sequence (P11678 251-715, chain 2 of 2): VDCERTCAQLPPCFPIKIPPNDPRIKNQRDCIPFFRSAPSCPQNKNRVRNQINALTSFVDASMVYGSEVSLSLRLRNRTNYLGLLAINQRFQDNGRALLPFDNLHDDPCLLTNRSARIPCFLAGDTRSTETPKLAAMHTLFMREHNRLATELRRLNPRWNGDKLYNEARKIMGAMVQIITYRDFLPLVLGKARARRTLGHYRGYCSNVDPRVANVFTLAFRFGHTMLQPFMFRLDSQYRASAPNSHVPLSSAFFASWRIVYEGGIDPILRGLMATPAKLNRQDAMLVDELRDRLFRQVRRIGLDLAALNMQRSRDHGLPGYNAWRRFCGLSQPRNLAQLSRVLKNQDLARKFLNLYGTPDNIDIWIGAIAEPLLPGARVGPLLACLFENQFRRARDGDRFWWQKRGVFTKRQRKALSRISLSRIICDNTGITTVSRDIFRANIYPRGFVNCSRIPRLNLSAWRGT
Property name: pKd
Friendly reminder that pKd comes from taking -log10 of the concentration in mol/L.

Prompt line: What measured pKd goes with CTATGAACTGACTATGACCTCACTACCAAGATGCCATCCTACCAACGGTCGATGGATGAGTAATACAGGCCGGATGGGTACAGTCG [EPDz20M4 ligated to FS (FS-EPDz20M4)] ?
Response line: 7.52
